# measured-target: NaV1.5 (Homo sapiens (Human), UniProt Q14524)
# Sequence (Q14524 other isoform, or with tags, fused parts or gaps): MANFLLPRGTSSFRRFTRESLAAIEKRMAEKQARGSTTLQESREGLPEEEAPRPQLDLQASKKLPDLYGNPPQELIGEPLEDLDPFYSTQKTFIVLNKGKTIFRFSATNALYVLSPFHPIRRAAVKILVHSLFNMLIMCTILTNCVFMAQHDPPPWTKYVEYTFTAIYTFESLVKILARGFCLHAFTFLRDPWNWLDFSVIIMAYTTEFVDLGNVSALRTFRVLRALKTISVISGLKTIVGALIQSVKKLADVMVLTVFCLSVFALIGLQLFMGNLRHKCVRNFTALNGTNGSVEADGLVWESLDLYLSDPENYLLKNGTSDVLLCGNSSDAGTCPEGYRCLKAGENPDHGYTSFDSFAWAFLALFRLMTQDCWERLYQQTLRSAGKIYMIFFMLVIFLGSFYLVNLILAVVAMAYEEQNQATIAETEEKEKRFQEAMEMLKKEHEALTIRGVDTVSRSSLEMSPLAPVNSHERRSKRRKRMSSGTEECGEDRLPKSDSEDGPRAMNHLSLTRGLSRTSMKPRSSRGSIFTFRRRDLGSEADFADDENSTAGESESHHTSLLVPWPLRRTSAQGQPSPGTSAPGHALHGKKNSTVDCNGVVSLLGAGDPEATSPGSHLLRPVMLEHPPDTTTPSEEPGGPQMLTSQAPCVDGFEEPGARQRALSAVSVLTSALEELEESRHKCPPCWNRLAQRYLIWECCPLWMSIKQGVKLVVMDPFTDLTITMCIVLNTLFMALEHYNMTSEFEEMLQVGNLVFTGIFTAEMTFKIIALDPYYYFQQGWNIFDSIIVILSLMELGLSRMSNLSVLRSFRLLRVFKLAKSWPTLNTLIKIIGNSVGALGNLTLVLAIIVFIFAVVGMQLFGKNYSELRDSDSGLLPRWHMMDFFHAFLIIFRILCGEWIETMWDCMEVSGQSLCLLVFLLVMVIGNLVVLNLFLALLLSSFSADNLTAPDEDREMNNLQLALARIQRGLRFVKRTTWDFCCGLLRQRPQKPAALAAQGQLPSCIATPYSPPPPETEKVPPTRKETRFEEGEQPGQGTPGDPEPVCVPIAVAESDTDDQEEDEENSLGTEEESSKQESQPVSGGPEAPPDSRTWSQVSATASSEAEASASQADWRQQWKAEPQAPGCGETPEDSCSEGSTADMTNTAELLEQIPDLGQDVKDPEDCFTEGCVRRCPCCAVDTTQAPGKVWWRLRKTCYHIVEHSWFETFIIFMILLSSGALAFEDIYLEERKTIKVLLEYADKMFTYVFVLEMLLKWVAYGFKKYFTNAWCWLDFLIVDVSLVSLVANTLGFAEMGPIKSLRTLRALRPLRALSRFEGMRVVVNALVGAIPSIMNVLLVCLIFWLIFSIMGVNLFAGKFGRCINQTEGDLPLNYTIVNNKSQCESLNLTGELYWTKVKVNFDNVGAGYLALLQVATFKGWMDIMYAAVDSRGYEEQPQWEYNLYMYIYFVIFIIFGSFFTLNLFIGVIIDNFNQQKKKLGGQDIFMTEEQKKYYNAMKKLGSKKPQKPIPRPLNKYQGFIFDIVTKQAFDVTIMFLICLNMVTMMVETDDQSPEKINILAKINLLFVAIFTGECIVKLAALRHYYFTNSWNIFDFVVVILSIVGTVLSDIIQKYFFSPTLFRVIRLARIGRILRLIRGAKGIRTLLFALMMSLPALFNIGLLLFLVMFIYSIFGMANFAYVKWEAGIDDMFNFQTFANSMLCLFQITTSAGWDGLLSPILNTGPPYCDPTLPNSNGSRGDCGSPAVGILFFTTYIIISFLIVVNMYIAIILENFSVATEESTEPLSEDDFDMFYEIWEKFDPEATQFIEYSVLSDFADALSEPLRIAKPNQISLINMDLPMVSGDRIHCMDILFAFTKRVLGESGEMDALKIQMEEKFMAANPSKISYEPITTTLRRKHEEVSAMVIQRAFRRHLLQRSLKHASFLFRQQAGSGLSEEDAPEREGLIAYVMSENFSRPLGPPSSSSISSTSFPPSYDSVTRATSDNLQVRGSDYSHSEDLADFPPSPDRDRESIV
# assay-explanation: Sodium Influx Assay (Flux), NaV1.5
Where a name gives a salt, the structure may show the parent alone.
measurement-type: IC50

>  <molecule>
CC1(C)CN(Cc2cccc(F)c2CNc2cc(F)c(S(=O)(=O)Nc3cscn3)c(F)c2)C1 [Example 170]

>  <measured-target>
NaV1.5 (Homo sapiens (Human), UniProt Q14524)

>  <test-result>
15.2 µM

$$$$
>  <molecule>
CCC(C)(C)N(C)Cc1cccc(F)c1CNc1cc(F)c(S(=O)(=O)Nc2cscn2)c(F)c1 [Example 184, formate]

>  <measured-target>
NaV1.5 (Homo sapiens (Human), UniProt Q14524)

>  <test-result>
≥ 30 µM

$$$$
>  <molecule>
CN(C)Cc1cccc(F)c1CNc1cc(F)c(S(=O)(=O)Nc2cscn2)c(F)c1 [Example 165, formate]

>  <measured-target>
NaV1.5 (Homo sapiens (Human), UniProt Q14524)

>  <test-result>
20.8 µM

$$$$
>  <molecule>
CCC(Nc1cc(F)c(S(=O)(=O)Nc2nccs2)cc1Cl)c1ccccc1 (stereo not drawn) [Example 141]

>  <measured-target>
NaV1.5 (Homo sapiens (Human), UniProt Q14524)

>  <test-result>
21 µM

$$$$
>  <molecule>
CN(Cc1cccc(F)c1CNc1cc(F)c(S(=O)(=O)Nc2cscn2)c(F)c1)CC1(C)COC1 [Example 167, formate]

>  <measured-target>
NaV1.5 (Homo sapiens (Human), UniProt Q14524)

>  <test-result>
≥ 30 µM

$$$$

Proceeding to the next molecule to report its IC50.
QUERY: Give IC50 (NaV1.5 (Homo sapiens (Human), UniProt Q14524)) of the following molecule: CCC(Nc1ccc(S(=O)(=O)Nc2ncns2)cc1Cl)c1ccccc1 (stereo not drawn) [Example 139]
RESULT: 12.9 µM
